The values you see were collected from the NIST ThermoML archive (doi:10.1016/j.fluid.2016.07.022).

Settings: 333.15 K; 101.33 kPa; Liquid; Frequency=3 MHz; Single path-length method
REPORTED METRIC: speed of sound (m/s)

- MOLECULE: "CCCCC(=O)[O-].CCCC[NH2+]CCO [N-(2-hydroxyethyl)butan-1-aminium pentanoate]"
  speed of sound, m/s: 1328
- MOLECULE: "CCCC[NH2+]CCO.O=C[O-] [N-(2-hydroxyethyl)butan-1-aminium formate]"
  speed of sound, m/s: 1509.2
- MOLECULE: "CCCC(=O)[O-].CCCC[NH2+]CCO [N-(2-hydroxyethyl)butan-1-aminium butyrate]"
  speed of sound, m/s: 1350.2
- MOLECULE: "CCC(=O)[O-].CCCC[NH2+]CCO [N-(2-hydroxyethyl)butan-1-aminium propionate]"
  speed of sound, m/s: 1381.6
- MOLECULE: "CC(=O)[O-].CCCC[NH2+]CCO [N-(2-hydroxyethyl)butan-1-aminium acetate]"
  speed of sound, m/s: 1429.3
